biological target: FLuc-C-HiBiT (Photinus pyralis, UniProt P08659); construct: firefly luciferase with C-terminal HiBiT tag, E. coli expressed; assay: biochemical; conditions: enzyme activity, 10 uM ATP; read-out: IC50 or SDR50 (mM) / FLuc E
Sequence (P08659 whole entry, looked up): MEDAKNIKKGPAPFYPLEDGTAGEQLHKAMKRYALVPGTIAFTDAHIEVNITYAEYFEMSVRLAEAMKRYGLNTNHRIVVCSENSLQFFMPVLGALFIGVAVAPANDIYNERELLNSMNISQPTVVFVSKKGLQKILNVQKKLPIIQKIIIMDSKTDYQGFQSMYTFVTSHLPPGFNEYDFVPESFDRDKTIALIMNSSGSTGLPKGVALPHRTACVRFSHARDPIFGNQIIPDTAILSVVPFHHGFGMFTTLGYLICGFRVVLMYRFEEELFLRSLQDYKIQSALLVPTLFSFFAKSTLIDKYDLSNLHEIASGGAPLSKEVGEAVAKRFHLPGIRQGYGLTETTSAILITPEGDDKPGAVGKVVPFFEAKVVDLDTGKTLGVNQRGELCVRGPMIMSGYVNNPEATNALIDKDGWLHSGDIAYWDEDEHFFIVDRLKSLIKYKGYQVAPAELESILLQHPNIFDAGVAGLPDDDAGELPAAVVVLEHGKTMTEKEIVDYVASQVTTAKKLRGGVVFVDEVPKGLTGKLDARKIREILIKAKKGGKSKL
Some compounds, each annotated with its measured log10(IC50).
Use the decimal logarithm of IC50 (mM).

Query "CCCCC(=O)Nc1cccc(-c2nc3ccccc3s2)c1" on FLuc-C-HiBiT (Photinus pyralis, UniProt P08659); log10(IC50) returned: -1.95

Query "O=C(CSc1nccn1Cc1ccco1)Nc1ccc(OC(F)(F)F)cc1" on FLuc-C-HiBiT (Photinus pyralis, UniProt P08659); log10(IC50) returned: -1.91

Query "O=[S+]([O-])(c1cccc(Cl)c1)n1c(/C=C/c2ccccc2Cl)nc2ccccc21" on FLuc-C-HiBiT (Photinus pyralis, UniProt P08659); log10(IC50) returned: -3.75

Query "O=C1CCc2cc(NC(=O)c3n[nH]c4ccccc34)ccc2N1" on FLuc-C-HiBiT (Photinus pyralis, UniProt P08659); log10(IC50) returned: -2.50

Query "C[C@@H]1C(=O)O[C@H]2[C@H]1CC[C@@]1(C)Cc3sc(Nc4cccnc4)nc3[C@@H](C)[C@H]21" on FLuc-C-HiBiT (Photinus pyralis, UniProt P08659); log10(IC50) returned: -3.34

Query "Cc1ccc(Cl)cc1NC(=O)c1cc(-c2ccc3c(c2)OCCO3)on1" on FLuc-C-HiBiT (Photinus pyralis, UniProt P08659); log10(IC50) returned: -2.75

---

Some compounds, each annotated with its measured SDR No ATP.
molecular target: FLuc-C-HiBiT (firefly luciferase) (Photinus pyralis, UniProt P08659, form not given/L550V); experiment: SDR assay, FLuc-C-HiBiT; conditions: 10 nM FLuc-C-HiBiT; normalized activity; Log [Compound], M -8.30
Sequence (P08659 2-550 L550V, form open): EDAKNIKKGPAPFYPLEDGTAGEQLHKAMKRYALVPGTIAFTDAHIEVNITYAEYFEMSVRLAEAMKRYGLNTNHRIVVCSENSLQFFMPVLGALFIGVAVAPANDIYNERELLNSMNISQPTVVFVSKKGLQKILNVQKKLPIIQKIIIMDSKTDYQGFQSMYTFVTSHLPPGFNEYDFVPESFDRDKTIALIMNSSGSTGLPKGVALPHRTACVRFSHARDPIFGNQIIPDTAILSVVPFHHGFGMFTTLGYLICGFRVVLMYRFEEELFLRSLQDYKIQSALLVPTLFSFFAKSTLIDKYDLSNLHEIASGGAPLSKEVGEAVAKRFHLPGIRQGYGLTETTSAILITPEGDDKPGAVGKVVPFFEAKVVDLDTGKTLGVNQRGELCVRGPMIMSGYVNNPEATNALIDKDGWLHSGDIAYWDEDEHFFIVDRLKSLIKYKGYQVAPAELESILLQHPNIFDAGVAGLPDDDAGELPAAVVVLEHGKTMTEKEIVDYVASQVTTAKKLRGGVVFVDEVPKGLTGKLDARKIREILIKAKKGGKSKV
// print number alone

COc1ccc(-c2nc(-c3ccc(C(=O)O)cc3)no2)cc1
12.3
O=C(O)c1cccc2c1CCN2C(=O)Nc1ccc(F)cc1
13.3
O=C(O)CCSc1nnc(-c2ccc(Cl)cc2Cl)o1
14.6

The recorded SDR No ATP for "CNC(=O)c1cccc2c1CCN2C(=O)Nc1ccc(C)cc1" is 11.8

The recorded SDR No ATP for CC1CCCN(c2ncnc3c2cnn3-c2ccccc2)C1 (centres unmarked) is 10.9

---

Molecular target: FLuc-C-HiBiT (firefly luciferase) (Photinus pyralis, UniProt P08659, form not given/L550V)
Assay: Firefly luciferase (FLuc) enzymatic luminescence assay, FLuc-C-HiBiT
Assay type: biochemical
Parameters: key: % normalized; no enzyme control = 100% inhibition, DMSO = 0
Details: sheet Figure 1g (values as in Figure 1f); normalized activity; Log [Compound], M -5.91
Method: The enzyme activity of FLuc-N-HiBiT, FLuc-C-HiBiT, and FLuc-C-NLuc was measured similar to P. pyralis firefly luciferase (FLuc) as previously described. […] Luciferin was incubated with FLuc enzyme for 5 min before FLuc activity was then measured on a ViewLux CCD imager (PerkinElmer), with exposure times up to ten seconds with medium to high gain settings. […] 5 Detector ViewLux Read plate lum inescence (Exposure = 1- 10 sec; Gain = Medium -high; Speed = Slow; […]
attribute-measured: FLuc Enzyme
// print number alone

The recorded FLuc Enzyme for Fc1ccc(-c2cn3cc(Cc4ccccc4)sc3n2)cc1 [compound 00102110] is -78.6

The recorded FLuc Enzyme for CC(CNC(=O)C1CCN(C(=O)c2ncn3c2COC(c2ccccc2)C3)CC1)c1ccccc1 (stereo not drawn) [compound 00449795] is -29.8

The recorded FLuc Enzyme for O=C(O)c1cccc2c1CCN2C(=O)Nc1ccc(F)cc1 [compound 00432687] is -67.1
